Experimental Target: hKv3.1b (Homo sapiens, UniProt P48547)
Construct: expressed in transfected cells
Sequence (P48547 1-585 isoform P48547-2): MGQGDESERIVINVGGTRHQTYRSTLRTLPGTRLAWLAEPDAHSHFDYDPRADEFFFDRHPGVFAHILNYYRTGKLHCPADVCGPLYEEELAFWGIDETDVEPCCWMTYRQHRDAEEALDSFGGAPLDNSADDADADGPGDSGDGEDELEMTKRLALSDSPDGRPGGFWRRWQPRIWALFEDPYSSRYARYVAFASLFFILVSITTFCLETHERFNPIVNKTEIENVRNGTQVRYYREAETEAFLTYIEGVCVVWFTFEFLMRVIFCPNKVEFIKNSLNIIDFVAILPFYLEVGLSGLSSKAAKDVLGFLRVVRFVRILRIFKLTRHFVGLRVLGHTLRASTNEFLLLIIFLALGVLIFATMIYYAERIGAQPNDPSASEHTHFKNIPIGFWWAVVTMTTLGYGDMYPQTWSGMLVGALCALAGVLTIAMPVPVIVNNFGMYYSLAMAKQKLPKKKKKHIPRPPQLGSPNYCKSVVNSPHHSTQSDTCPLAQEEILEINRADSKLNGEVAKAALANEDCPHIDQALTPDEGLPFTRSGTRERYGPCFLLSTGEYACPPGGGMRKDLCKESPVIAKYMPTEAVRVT
Test Protocol: Automated patch clamp (QPatch-16x) on HEK-293 cells stably expressing hKv3.1b
Assay type: cell-based
Experimental Parameters: concentration needed to shift the activation threshold 5 mV
Output Met for ECdelta5 mV not less than 2000 nM; output Not met otherwise.

// query For this compound, is measured ECdelta5 mV 2000 nM or higher? COc1ccc(S(=O)(=O)n2ccc(C(=O)NCc3ncc(C)o3)c2)cc1
// result Met

// query Also O=C(NCc1cnccn1)c1ccn(S(=O)(=O)c2ccc(F)cc2)c1 , if possible.
// result Met

// query Check Cc1ccc(S(=O)(=O)n2ccc(C(=O)NCc3cnn(C)c3)c2)cc1 too.
// result Not met

// query Next compound: Cc1ccc(S(=O)(=O)n2ccc(C(=O)NCc3cncnc3)c2)cc1
// result Met

// query Similarly, Cc1ccc(S(=O)(=O)n2ccc(C(=O)NCc3ncon3)c2)cc1 ?
// result Met

// query How about Cc1cnc(CNC(=O)c2ccn(S(=O)(=O)c3ccccc3F)c2)cn1 ?
// result Met

// query // repeat for Cc1cnc(CNC(=O)c2ccn(S(=O)(=O)c3ccc(F)cc3)c2)cn1 and report
// result Met

// query Can you check COc1ccc(S(=O)(=O)n2ccc(C(=O)NCc3ccc(C)cn3)c2)cc1 next?
// result Not met

// query Next compound up: Cc1cnc(CNC(=O)c2ccn(S(=O)(=O)c3ccccc3)c2)cn1
// result Met

// query Record: Cc1cnc(CNC(=O)c2ccn(S(=O)(=O)c3ccccc3C)c2)cn1
// result Not met

// query Same again, this time with Cc1ccc(S(=O)(=O)n2ccc(C(=O)NCc3cscn3)c2)cc1
// result Met

// query What about COc1ccc(S(=O)(=O)n2ccc(C(=O)NCc3cc(C)no3)c2)cc1 ?
// result Not met

// query Let us now turn to Cc1ccc(S(=O)(=O)n2ccc(C(=O)NCc3cnc(C)cn3)c2)cc1
// result Not met

// query Cool, now Cc1ccc(S(=O)(=O)n2ccc(C(=O)NCc3nc(C)no3)c2)cc1
// result Not met

// query Queued: Cc1ccc(S(=O)(=O)n2ccc(C(=O)NCc3ccccn3)c2)cc1
// result Met

// query Now the same for Cc1cc(CNC(=O)c2ccn(S(=O)(=O)c3ccccc3C)c2)on1
// result Not met

// query Likewise for Cc1cnc(CNC(=O)c2ccn(S(=O)(=O)c3ccc(C(F)(F)F)cc3)c2)cn1 ?
// result Not met

// query Try the compound Cc1ccc(S(=O)(=O)n2ccc(C(=O)NCc3ncn(C)n3)c2)cc1
// result Not met

// query Same lookup for Cc1ccc(S(=O)(=O)n2ccc(C(=O)NCc3nncs3)c2)cc1 , please.
// result Met

// query Item: Cc1ccc(S(=O)(=O)n2cc(C(=O)NCc3cnc(C)cn3)cc2F)cc1
// result Met

* * *

Experimental Target: hKv3.1b (Homo sapiens, UniProt P48547)
Construct: expressed in transfected cells
Test Protocol: Automated patch clamp (QPatch-16x) on HEK-293 cells stably expressing hKv3.1b
Type: cell-based
Experimental Parameters: maximum absolute hyperpolarizing shift of activation threshold at tested concentrations 0.37-30 μM
Experimental: HEK-293 cells stably expressing hKv3.1b were used for the experiments. Cells were cultured in DMEM medium supplemented with 10% Fetal Bovine Serum, 100 ug/mL Geneticidin and 100 u/mL Penicillin/Streptomycin (all from Gibco). Cells were grown to 80-90% confluency at 37° C. and 5% CO2. […] Leak subtraction protocol was applied at −33% of the sweep amplitude, and serial resistance values were constantly monitored. […]
Consider the following compounds; for each one, report its Threshold Shift.
Number in mV, nothing else.

// query If you can, please state the reported Threshold Shift value of COc1ccc(S(=O)(=O)n2ccc(C(=O)NCc3ccn(C)n3)c2)cc1 [Compound 66] .
// result 18

// query What do we get for Cc1noc(CNC(=O)c2ccn(S(=O)(=O)c3ccccc3C)c2)n1 [Compound 75] ?
// result 14

// query Queued: Cc1ccc(S(=O)(=O)n2ccc(C(=O)NCc3nnc(C)o3)c2)cc1 [Compound 31]
// result 13

// query Moving on to Cc1ccc(S(=O)(=O)n2ccc(C(=O)NCc3ncccc3C)c2)cc1 [Compound 17]
// result 16

// query Queued: Cc1ccc(S(=O)(=O)n2ccc(C(=O)NCc3ccon3)c2)cc1 [Compound 52]
// result 13

// query What do you get for Cc1cnc(CNC(=O)c2ccn(S(=O)(=O)c3ccc(F)cc3C)c2)cn1 [Compound 90] ?
// result 32

// query What about COc1ccc(S(=O)(=O)n2ccc(C(=O)NCc3nc(C)no3)c2)cc1 [Compound 68] ?
// result 21

// query And the next one, Cn1ccc(CNC(=O)c2ccn(S(=O)(=O)c3ccc(F)cc3)c2)n1 [Compound 63] ?
// result 13

// query Thanks! And Cc1ccc(S(=O)(=O)n2ccc(C(=O)NCc3nc(C)no3)c2)cc1 [Compound 43] ?
// result 23

// query What do you have for Cc1cnc(CNC(=O)c2ccn(S(=O)(=O)c3ccccc3)c2)c(Cl)n1 [Compound 113] ?
// result 14

// query Request: Cc1ccc(S(=O)(=O)n2ccc(C(=O)NCc3ncon3)c2)cc1 [Compound 57]
// result 14

// query Okay, and Cc1cnc(CNC(=O)c2ccn(S(=O)(=O)c3cccc(C)c3)c2)nc1 [Compound 62] ?
// result 12

// query Moving on to the next compound: COc1ccc(S(=O)(=O)n2ccc(C(=O)NCc3ncc(C)cn3)c2)c(Cl)c1 [Compound 118]
// result 20

// query Next: Cc1ccc(S(=O)(=O)n2ccc(C(=O)NCc3cnc(C)s3)c2)cc1 [Compound 114]
// result 15

// query Please answer likewise for Cc1cnc(CNC(=O)c2ccn(S(=O)(=O)c3ccc(C(F)F)cc3)c2)cn1 [Compound 93]
// result 34

// query Please do the same for Cc1ccc(S(=O)(=O)n2ccc(C(=O)NCc3cnn(C)n3)c2)cc1 [Compound 109] as well.
// result 29

// query Try this compound too: COc1ccc(S(=O)(=O)n2ccc(C(=O)NCc3ncc(C)cn3)c2)cc1 [Compound 72]
// result 20

// query Another compound to check: COc1ncc(CNC(=O)c2ccn(S(=O)(=O)c3ccc(OC(F)F)cc3)c2)cn1 [Compound 112]
// result 17

// query Same again, this time with COc1ccc(S(=O)(=O)n2ccc(C(=O)NCc3cnc(C)cn3)c2)c(Br)c1 [Compound 105]
// result 24

// query Request: Cn1ccc(CNC(=O)c2ccn(S(=O)(=O)c3ccccc3)c2)n1 [Compound 82]
// result 14

// query Try the compound CNc1cnc(CNC(=O)c2ccn(S(=O)(=O)c3ccc(OC(F)F)cc3)c2)cn1 [Compound 107]
// result 36

// query Entry to check: O=C(NCc1cnccn1)c1ccn(S(=O)(=O)c2ccccc2F)c1 [Compound 59]
// result 14

// query Next: Cc1ccccc1S(=O)(=O)n1ccc(C(=O)NCc2ccn(C)n2)c1 [Compound 74]
// result 21

// query Thanks! And Cc1ccc(S(=O)(=O)n2ccc(C(=O)NCc3nncs3)c2)cc1 [Compound 56] ?
// result 14

// query What about this compound? Cc1noc(CNC(=O)c2ccn(S(=O)(=O)c3ccc(F)cc3)c2)n1 [Compound 65]
// result 14

// query Same lookup for Cc1cnc(CNC(=O)c2ccn(S(=O)(=O)c3c(C)cc(F)cc3C)c2)cn1 [Compound 99] , please.
// result 21
